The origin of these recorded values is patent US20200399250A1.

# ASSAY_TARGET: TrkA (Homo sapiens, UniProt P04629)
# Sequence (P04629 33-796): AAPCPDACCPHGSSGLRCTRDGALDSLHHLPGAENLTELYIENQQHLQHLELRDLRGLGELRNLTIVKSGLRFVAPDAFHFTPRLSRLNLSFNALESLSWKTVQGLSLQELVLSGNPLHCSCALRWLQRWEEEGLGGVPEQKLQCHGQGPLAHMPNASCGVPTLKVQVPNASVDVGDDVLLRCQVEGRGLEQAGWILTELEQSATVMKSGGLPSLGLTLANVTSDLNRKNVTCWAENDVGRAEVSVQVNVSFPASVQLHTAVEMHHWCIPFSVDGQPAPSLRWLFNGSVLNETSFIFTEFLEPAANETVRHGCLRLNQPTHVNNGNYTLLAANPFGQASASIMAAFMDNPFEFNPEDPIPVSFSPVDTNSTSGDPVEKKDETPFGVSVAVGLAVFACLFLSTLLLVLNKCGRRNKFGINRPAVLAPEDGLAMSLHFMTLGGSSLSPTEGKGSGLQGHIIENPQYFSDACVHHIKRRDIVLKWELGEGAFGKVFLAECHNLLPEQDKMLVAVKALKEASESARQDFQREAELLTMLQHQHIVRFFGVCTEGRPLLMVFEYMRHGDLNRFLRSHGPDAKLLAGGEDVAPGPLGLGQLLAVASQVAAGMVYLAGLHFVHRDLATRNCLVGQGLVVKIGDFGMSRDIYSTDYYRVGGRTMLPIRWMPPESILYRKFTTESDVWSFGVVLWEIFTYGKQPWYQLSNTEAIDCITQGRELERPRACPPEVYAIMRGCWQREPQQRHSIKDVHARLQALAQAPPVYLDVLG
# TEST_DESCRIPTION: KINOMEscan primary screen against TrkA
# Format: binding
# EXPERIMENTAL_CONDITIONS: 100 nM compound; % of control
OBSERVED_PROPERTY: % Ctrl. TrkA @100 nM
Express your answer as a number followed by its unit.

{"SMILES": "Cc1cc(Nc2cc(N3CCN(C)CC3)nc(SCc3ccc(F)cc3)n2)n[nH]1", "REPORTED_VALUE": "0.5 % Ctrl."}
{"SMILES": "Cc1cc(Nc2cc(N3CCN(C)CC3)nc(SCc3cccc4ccccc34)n2)n[nH]1", "REPORTED_VALUE": "35 % Ctrl."}
{"SMILES": "Cc1cccc(Sc2nc(Nc3cc(C)[nH]n3)cc(N3CCN(C)CC3)n2)c1", "REPORTED_VALUE": "6.7 % Ctrl."}
{"SMILES": "Cc1cc(Nc2cc(N3CCN(C)CC3)nc(Sc3cccc(C(F)(F)F)c3)n2)n[nH]1", "REPORTED_VALUE": "32 % Ctrl."}

Query: Return reported % Ctrl. TrkA @100 nM; argument: `Cc1ccc(CSc2nc(Nc3cc(C)[nH]n3)cc(N3CCN(C)CC3)n2)cc1`
Reply: 5.3 % Ctrl.
